# SYSTEM NAME: T1, human CD37 (human, UniProt P11049 1-281)
# T1 construct: whole, on cells; also called CD37 antigen
# T1 sequence (looked up): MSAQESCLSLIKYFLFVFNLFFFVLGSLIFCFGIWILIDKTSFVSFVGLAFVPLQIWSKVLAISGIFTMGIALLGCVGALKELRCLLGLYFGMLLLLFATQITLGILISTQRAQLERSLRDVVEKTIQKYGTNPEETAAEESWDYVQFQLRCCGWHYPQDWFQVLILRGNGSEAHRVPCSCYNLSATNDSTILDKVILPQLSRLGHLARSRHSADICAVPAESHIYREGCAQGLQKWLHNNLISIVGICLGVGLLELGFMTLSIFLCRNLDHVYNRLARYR
# RUN DESCRIPTION: competitive radioligand binding on Ramos cells against 177Lu-NNV009 (2.7 nM), gamma counting
MEASURED ATTRIBUTE: pEC50
pEC50 (log units): -log10 of the concentration in mol/L.

So what's the measured pEC50 for this one? AH02875 (antibody, human IgG1, V domains shown, Full-length human IgG1 kappa; also called NNV020 #2) VH: QIQLVQSGAELKKPGASVKVSCKASGYSFTDYNMYWVRQAPGQRLEWMGYIDPYNGDTTYNQKFKGRATITRDTSASTAYIELSSLRSEDTAVYYCARSPYGHYAMDYWGQGTLVTVSS VL: DIQMTQSPSSLSASVGDRVTITCKASQDVSTAVDWYQQKPGKSPKLLINWASTRHTGVPSRFSGSGSGTDYTLTISSMQPEDFATYYCRQHYSTPFTFGQGTKLEIKR
8.94
